Here the recorded IC50 is given for each entry.
# TEST_SYSTEM: human GPVI-Fc (isoform and haplotype not stated) used in the competition ELISA (human) (UniProt Q9HCN6)
# TEST_SUMMARY: Competition ELISA (MSD): human GPVI-Fc preincubated with Fab, then on coated rat-tail collagen (competitor)
Unit nM implied. Number only.

| BINDER | UNIT_TAG | RECORDED_VALUE |
| --- | --- | --- |
| Fab #4 comprising a modified heavy chain constant region (Fab, V domains shown) VH: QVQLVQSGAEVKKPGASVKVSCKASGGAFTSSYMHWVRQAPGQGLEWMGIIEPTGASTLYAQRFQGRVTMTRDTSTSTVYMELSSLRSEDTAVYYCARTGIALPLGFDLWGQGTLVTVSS VL: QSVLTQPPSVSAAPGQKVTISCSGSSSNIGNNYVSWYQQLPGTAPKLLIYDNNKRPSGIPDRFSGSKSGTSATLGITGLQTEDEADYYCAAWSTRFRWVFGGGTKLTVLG | nM | 8.2 |
| Fab #2 comprising a modified heavy chain constant region (Fab, V domains shown) VH: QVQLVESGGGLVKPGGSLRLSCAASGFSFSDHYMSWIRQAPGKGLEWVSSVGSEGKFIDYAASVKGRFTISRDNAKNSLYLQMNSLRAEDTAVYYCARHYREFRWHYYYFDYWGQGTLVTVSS VL: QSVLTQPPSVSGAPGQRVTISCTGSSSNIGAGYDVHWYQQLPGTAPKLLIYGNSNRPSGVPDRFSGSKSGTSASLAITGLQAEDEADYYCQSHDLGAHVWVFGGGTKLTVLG | nM | 6.3 |
| Fab #3 comprising a modified heavy chain constant region (Fab, V domains shown) VH: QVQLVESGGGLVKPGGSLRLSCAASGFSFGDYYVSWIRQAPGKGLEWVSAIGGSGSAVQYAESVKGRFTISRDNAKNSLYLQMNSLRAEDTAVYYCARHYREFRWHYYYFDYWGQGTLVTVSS VL: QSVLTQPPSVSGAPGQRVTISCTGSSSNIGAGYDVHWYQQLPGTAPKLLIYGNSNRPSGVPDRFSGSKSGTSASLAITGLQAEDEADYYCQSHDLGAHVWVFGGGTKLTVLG | nM | 6.3 |
| Reference Control Antibody RefFab #1 (humanized GPVI antibody of WO2011073954A2, SANOFI) (Fab, V domains shown) VH: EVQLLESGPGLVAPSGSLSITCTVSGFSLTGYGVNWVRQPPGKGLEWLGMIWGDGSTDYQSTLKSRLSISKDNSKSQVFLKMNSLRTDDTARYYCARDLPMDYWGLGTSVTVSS VL: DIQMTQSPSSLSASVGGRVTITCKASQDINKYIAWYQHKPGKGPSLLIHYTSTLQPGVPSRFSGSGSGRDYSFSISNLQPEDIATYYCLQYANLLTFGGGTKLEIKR | nM | 7 |

Alright, here's another binder for you.
What value of IC50 has been recorded for this entry: Fab #1 comprising a modified heavy chain constant region (Fab, V domains shown) VH: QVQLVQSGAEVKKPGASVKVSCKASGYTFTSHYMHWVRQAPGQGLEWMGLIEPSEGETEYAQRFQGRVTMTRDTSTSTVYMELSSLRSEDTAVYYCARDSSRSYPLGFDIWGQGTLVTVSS VL: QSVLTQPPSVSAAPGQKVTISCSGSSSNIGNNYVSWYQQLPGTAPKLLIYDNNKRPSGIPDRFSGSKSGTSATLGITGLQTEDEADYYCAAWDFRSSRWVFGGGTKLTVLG
11
